Test system: S. aureus MW2 (NRS123)
assay text: microbe, parasite or virus in culture
Type: cell-based, Staphylococcus aureus
details: Staphylococcus aureus, NRS123, passage 20; selection group DAP + TMP/SMX
Would you mind telling me the reported MIC of each entry?
Give bare numbers, in µg/mL.

[
  {
    "smiles input": "CC(=O)NC[C@H]1CN(c2ccc(N3CCOCC3)c(F)c2)C(=O)O1",
    "assay value": 2
  },
  {
    "smiles input": "CCC[C@@H]1C[C@@H](C(=O)N[C@@H]([C@H]2O[C@H](SC)[C@H](O)[C@@H](O)[C@H]2O)[C@H](C)Cl)N(C)C1",
    "assay value": 0.125
  }
]

// next entry
Entry CN[C@H](CC(C)C)C(=O)N[C@H]1C(=O)N[C@@H](CC(N)=O)C(=O)N[C@H]2C(=O)N[C@H]3C(=O)N[C@H](C(=O)N[C@H](C(=O)O)c4cc(O)cc(O)c4-c4cc3ccc4O)[C@H](O)c3ccc(c(Cl)c3)Oc3cc2cc(c3O[C@@H]2O[C@H](CO)[C@@H](O)[C@H](O)[C@H]2O[C@H]2C[C@](C)(N)[C@H](O)[C@H](C)O2)Oc2ccc(cc2Cl)[C@H]1O ; MIC = 8

###

Test system: S. aureus MW2 (NRS123)
assay text: microbe, parasite or virus in culture
Assay type: cell-based, Staphylococcus aureus
details: Staphylococcus aureus, NRS123, passage 5; selection group DAP + TR-705
attribute measured: MIC (µg/mL)
Answers are plain numbers, in µg/mL.

Use these answered entries as a reference point.
[
  {
    "compound": "C=C[C@]1(C)C[C@@H](OC(=O)CSCCN(CC)CC)[C@]2(C)[C@H](C)CC[C@]3(CCC(=O)[C@H]32)[C@@H](C)[C@@H]1O [TIA, tiamulin]",
    "attribute measured": "MIC",
    "units of measure": "µg/mL",
    "assay value": 1
  },
  {
    "compound": "Cn1nnc(-c2ccc(-c3ccc(N4C[C@H](CO)OC4=O)cc3F)cn2)n1 [TR-700, Tedizolid]",
    "attribute measured": "MIC",
    "units of measure": "µg/mL",
    "assay value": 0.5
  },
  {
    "compound": "CN(C)[C@@H]1C(O)=C(C(N)=O)C(=O)[C@@]2(O)C(O)=C3C(=O)c4c(O)cccc4[C@@](C)(O)[C@H]3C[C@@H]12 [TET, tetracycline]",
    "attribute measured": "MIC",
    "units of measure": "µg/mL",
    "assay value": 0.5
  },
  {
    "compound": "CCC[C@@H]1C[C@@H](C(=O)N[C@@H]([C@H]2O[C@H](SC)[C@H](O)[C@@H](O)[C@H]2O)[C@H](C)Cl)N(C)C1 [CLI, clindamycin]",
    "attribute measured": "MIC",
    "units of measure": "µg/mL",
    "assay value": 0.0625
  }
]

I would be grateful if you could provide MIC for each of the following entries.
1. CC(=O)NC[C@H]1CN(c2ccc(N3CCOCC3)c(F)c2)C(=O)O1 [LZD, linezolid]
2. CN[C@H](CC(C)C)C(=O)N[C@H]1C(=O)N[C@@H](CC(N)=O)C(=O)N[C@H]2C(=O)N[C@H]3C(=O)N[C@H](C(=O)N[C@H](C(=O)O)c4cc(O)cc(O)c4-c4cc3ccc4O)[C@H](O)c3ccc(c(Cl)c3)Oc3cc2cc(c3O[C@@H]2O[C@H](CO)[C@@H](O)[C@H](O)[C@H]2O[C@H]2C[C@](C)(N)[C@H](O)[C@H](C)O2)Oc2ccc(cc2Cl)[C@H]1O [VAN, vancomycin]

Output:
1: 2; 2: 4
